# credit: patent US11814367B2

Each entry below carries its recorded IC50.
- Tested system: hGYS1 enzyme (recombinant hGYS1/GN1 protein) (Homo sapiens (Human))
- Sequence (P13807 whole entry): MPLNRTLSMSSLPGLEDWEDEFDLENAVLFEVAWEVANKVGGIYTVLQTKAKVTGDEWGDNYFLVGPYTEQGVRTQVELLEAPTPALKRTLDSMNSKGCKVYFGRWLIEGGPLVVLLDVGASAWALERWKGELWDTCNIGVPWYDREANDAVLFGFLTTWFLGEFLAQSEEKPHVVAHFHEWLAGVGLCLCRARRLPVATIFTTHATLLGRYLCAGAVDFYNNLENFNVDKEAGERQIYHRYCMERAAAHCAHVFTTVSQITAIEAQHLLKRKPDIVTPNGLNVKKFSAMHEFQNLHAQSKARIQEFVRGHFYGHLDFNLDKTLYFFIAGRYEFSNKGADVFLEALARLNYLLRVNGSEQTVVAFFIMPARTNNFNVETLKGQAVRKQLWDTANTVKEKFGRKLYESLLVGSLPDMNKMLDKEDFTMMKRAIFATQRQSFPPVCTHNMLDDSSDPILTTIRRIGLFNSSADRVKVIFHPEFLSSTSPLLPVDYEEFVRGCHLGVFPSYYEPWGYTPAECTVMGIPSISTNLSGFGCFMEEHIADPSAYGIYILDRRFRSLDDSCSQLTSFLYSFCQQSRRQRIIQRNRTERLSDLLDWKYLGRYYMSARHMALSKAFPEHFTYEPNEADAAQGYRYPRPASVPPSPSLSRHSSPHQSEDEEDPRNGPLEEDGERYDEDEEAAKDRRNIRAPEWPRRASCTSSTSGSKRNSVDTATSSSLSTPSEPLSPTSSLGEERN
- Sequence (P46976 whole entry partner): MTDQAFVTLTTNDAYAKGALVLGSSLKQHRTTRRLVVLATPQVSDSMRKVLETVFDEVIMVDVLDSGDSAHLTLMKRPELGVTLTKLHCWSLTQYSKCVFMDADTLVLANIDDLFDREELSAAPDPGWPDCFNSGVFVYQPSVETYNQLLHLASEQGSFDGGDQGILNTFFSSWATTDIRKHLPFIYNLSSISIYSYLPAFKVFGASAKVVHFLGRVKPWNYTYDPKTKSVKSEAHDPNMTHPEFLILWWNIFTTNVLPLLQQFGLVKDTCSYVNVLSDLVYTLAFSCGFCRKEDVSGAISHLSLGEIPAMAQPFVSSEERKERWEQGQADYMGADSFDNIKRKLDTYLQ
- Assay name: GYS1 coupled enzyme assay (PK/LDH)
- Protocol conditions: hGYS1/GN1 50 nM, UDP-Glucose 0.8 mM, G6P 1 mM; geometric mean of at least 2 runs
Reply with just the number (in nM).

Task item: Output measured IC50 for this item: `CCn1cc(CC(=O)N2C[C@H](F)C[C@H]2C(=O)N[C@@H](c2ccccc2)c2ccc(C3CC(F)(F)C3)c(F)n2)ccc1=O`
Reply: 8

Further cases:
Task item: Output measured IC50 for this item: `CC(C)c1ccc([C@@H](NC(=O)[C@@H]2C[C@@H](F)CN2C(=O)Cc2n[nH]c(=O)n2C)c2ccccc2)nc1`
Reply: 130

Task item: Output measured IC50 for this item: `CC(C)c1ccc([C@@H](NC(=O)[C@@H]2C[C@@H](F)CN2C(=O)CCC(=O)N2CCCC2)c2ccccc2)cc1`
Reply: 77

Task item: Output measured IC50 for this item: CC(C)c1ccc([C@@H](NC(=O)[C@@H]2C[C@@H](F)CN2C(=O)C2CCNC(=O)C2)c2ccccc2)cc1 (stereo partly shown)
Reply: 108
